Values were extracted from ChEMBL document CHEMBL1136765.

# Measurement Target: Alpha adrenergic receptor 1A and 1D (Rattus norvegicus) (UniProt P23944+P43140)
# Procedure Text: Selectivity given as ratio of pKb value against Alpha-1D receptor to pKb value against alpha1A receptor in rat
# Assay type: functional
Examples of molecules with documented Selectivity follow.
Form rule: numeric answer, no unit written next to it.

Worked cases, Selectivity given:
Selectivity recorded for this molecule, COc1cccc(OC)c1OCCNCC1CO[C@@H](Cc2ccccc2)O1.O=C(O)C(=O)O (some centres undefined) , is 0.2

Selectivity recorded for this molecule, O=C(O)C(=O)O.c1ccc(OCCNCC2CO[C@@H](c3ccccc3)O2)cc1 (some centres undefined) , is 9

Selectivity recorded for this molecule, COc1cccc(OC)c1OCCNCC1CO[C@H](C(c2ccccc2)c2ccccc2)O1.O=C(O)C(=O)O (some centres undefined) , is 36

Selectivity recorded for this molecule, COc1cccc(OC)c1OCCNCC1CO[C@H](Cc2ccccc2)O1.O=C(O)C(=O)O (some centres undefined) , is 0.6

Selectivity recorded for this molecule, COc1cccc(OC)c1OCCNCC1CO[C@@H](c2cccc3ccccc23)O1.O=C(O)C(=O)O (some centres undefined) , is 24

Next:
Selectivity recorded for this molecule, COc1cccc(OC)c1OCCNCC1COC(c2ccccc2)(c2ccccc2)O1.O=C(O)C(=O)O (centres undefined) , is 16

Selectivity recorded for this molecule, O=C(O)C(=O)O.c1ccc(OCCNCC2COC3(CCCCC3)O2)cc1 (centres undefined) , is 19

====

# Measurement Target: Alpha-1B adrenergic receptor (Homo sapiens, UniProt P35368)
# Sequence (P35368 whole entry): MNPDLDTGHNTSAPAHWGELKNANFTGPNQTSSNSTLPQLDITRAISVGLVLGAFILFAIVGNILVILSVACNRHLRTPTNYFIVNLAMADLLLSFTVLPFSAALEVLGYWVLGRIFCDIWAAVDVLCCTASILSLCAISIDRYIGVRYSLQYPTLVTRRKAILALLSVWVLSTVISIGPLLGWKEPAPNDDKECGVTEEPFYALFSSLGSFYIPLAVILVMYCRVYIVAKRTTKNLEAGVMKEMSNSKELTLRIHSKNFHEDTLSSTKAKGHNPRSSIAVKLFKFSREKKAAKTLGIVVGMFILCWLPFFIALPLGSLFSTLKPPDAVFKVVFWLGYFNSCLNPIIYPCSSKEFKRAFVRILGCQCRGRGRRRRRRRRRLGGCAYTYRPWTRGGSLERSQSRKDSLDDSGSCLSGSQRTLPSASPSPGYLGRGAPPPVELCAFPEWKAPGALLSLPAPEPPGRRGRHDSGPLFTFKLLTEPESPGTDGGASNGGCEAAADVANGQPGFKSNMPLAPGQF
# Procedure Text: Affinity constant towards human recombinant Alpha-1B adrenergic receptor using [3H]prazosin (from CHO cells) as radioligand by radioligand binding assay
Examples of compounds with documented pKi follow.
The quantity pKi is defined as the negative base-10 logarithm of the molar concentration.

Worked cases, pKi given:
pKi recorded for this compound, COc1ccccc1OCCNCC1COC(c2ccccc2)(c2ccccc2)O1.O=C(O)C(=O)O (centres undefined) , is 7.34

pKi recorded for this compound, C[N+](C)(CCOc1ccccc1)CC1COC(c2ccccc2)(c2ccccc2)O1.O=C([O-])C(=O)O (centres undefined) , is 7.69

pKi recorded for this compound, CN(CCOc1ccccc1)CC1COC(c2ccccc2)(c2ccccc2)O1.O=C(O)C(=O)O (centres undefined) , is 6.59

Next:
pKi recorded for this compound, O=C(O)C(=O)O.c1ccc(OCCNCC2COC(c3ccccc3)(c3ccccc3)O2)cc1 (centres undefined) , is 7.20
